The measurements presented in this section are drawn from patent US11541107B2.

Test system: HLA-A*24
Assay: MHC binding assay, UV-ligand exchange with beta2m ELISA, HLA-A*24
Set-up: species or system human
Settings: binding to HLA-A*24 ranged by peptide exchange yield (UV-ligand exchange, beta2m ELISA)
Excerpt: Candidate peptides for T cell based therapies according to the present invention were further tested for their MHC binding capacity (affinity). The individual peptide-MHC complexes were produced by UV-ligand exchange, where a UV-sensitive peptide is cleaved upon UV-irradiation, and exchanged with the peptide of interest as analyzed. Only peptide candidates that can effectively bind and stabilize the peptide-receptive MHC molecules prevent dissociation of the MHC complexes. […]
readout label: Peptide exchange

197 (IFTDIFHYL; listed as Homo sapiens) [compound 197] = ++++ (>=75% = ++++)
114 (QYLDGTWSL; listed as Homo sapiens) [compound 114] = ++++ (>=75% = ++++)
380 (VYTGIDHHW; listed as Homo sapiens) [compound 380] = ++++ (>=75% = ++++)

* * *

molecular target: HLA-A*02 (Homo sapiens, UniProt P04439, D140Y/D185E/D98H/E176V/E277Q/G131W/G231S/I119V/I121R/I166T/I218V/L300P/N151K/N90K/P208A/P217A/Q86G/Q94H/R138H/R169H); test: MHC binding assay, UV-ligand exchange with beta2m ELISA, HLA-A*02; details: binding to HLA-A*02 ranged by peptide exchange yield (UV-ligand exchange, beta2m ELISA)
readout label: Peptide exchange

336 (GLMDGSPHFL; listed as Homo sapiens) [compound 336] = ++ (20%-49% = ++)
67 (GVIETVTSL; listed as Homo sapiens) [compound 67] = ++ (20%-49% = ++)
11 (GVLKVFLENV; listed as Homo sapiens) [compound 11] = ++ (20%-49% = ++)
325 (RLLPKVQEV; listed as Homo sapiens) [compound 325] = ++ (20%-49% = ++)

* * *

system: HLA-A*24; test: MHC binding assay, UV-ligand exchange with beta2m ELISA, HLA-A*24; parameters: species or system human; settings: binding to HLA-A*24 ranged by peptide exchange yield (UV-ligand exchange, beta2m ELISA)
readout label: Peptide exchange

In the examples that follow, each entry is paired with its recorded Peptide exchange.
316 (VYFEGSDFKF; listed as Homo sapiens) [compound 316] = +++ (50%-75% = +++)
122 (EYQARIPEF; listed as Homo sapiens) [compound 122] = +++ (50%-75% = +++)
290 (KYGDFKLLEF; listed as Homo sapiens) [compound 290] = ++++ (>=75% = ++++)
169 (NYITGKGDVF; listed as Homo sapiens) [compound 169] = +++ (50%-75% = +++)
385 (QYIEELQKF; listed as Homo sapiens) [compound 385] = +++ (50%-75% = +++)
106 (IYNETVRDLL; listed as Homo sapiens) [compound 106] = +++ (50%-75% = +++)

Prompt: For the substance shown here, 368 (KYQNVKHNL; listed as Homo sapiens) [compound 368] , give the reported Peptide exchange.
Response: +++ (50%-75% = +++)

* * *

test system: HLA-A*24; assay: MHC binding assay, UV-ligand exchange with beta2m ELISA, HLA-A*24; parameters: species or system human; conditions: binding to HLA-A*24 ranged by peptide exchange yield (UV-ligand exchange, beta2m ELISA)
readout label: Peptide exchange

153 (VYVPFGGKSMITF; listed as Homo sapiens) [compound 153] = ++++ (>=75% = ++++)
109 (LFITGGQFF; listed as Homo sapiens) [compound 109] = ++++ (>=75% = ++++)
129 (KYIDYLMTW; listed as Homo sapiens) [compound 129] = ++++ (>=75% = ++++)

* * *

Test system: HLA-A*24
Assay: MHC binding assay, UV-ligand exchange with beta2m ELISA, HLA-A*24
Set-up: species or system human
Settings: binding to HLA-A*24 ranged by peptide exchange yield (UV-ligand exchange, beta2m ELISA)
Text: Candidate peptides for T cell based therapies according to the present invention were further tested for their MHC binding capacity (affinity). The individual peptide-MHC complexes were produced by UV-ligand exchange, where a UV-sensitive peptide is cleaved upon UV-irradiation, and exchanged with the peptide of interest as analyzed. Only peptide candidates that can effectively bind and stabilize the peptide-receptive MHC molecules prevent dissociation of the MHC complexes. […]
readout label: Peptide exchange

134 (AYIPTPIYF; listed as Homo sapiens) [compound 134] = +++ (50%-75% = +++)
251 (VYTKALSSL; listed as Homo sapiens) [compound 251] = +++ (50%-75% = +++)
240 (YYFFVQEKI; listed as Homo sapiens) [compound 240] = +++ (50%-75% = +++)
260 (VYMNVMTRL; listed as Homo sapiens) [compound 260] = ++++ (>=75% = ++++)

Please examine the following record next.
Prompt: For the substance shown here, 172 (VFIFKGNEF; listed as Homo sapiens) [compound 172] , give the reported Peptide exchange.
Response: ++++ (>=75% = ++++)
